Each record here notes measured composite z-score.
# MEASUREMENT PROTOCOL: binders from COS7 lysate, DM2A8 probe, primary screen, torsin A project, cell lysate, small-molecule microarray, fluorescence 635/667 (AID 1065)
# ASSAY CONDITIONS: higher = more signal, COS7 lysate expressing mutant human TOR1A
MEASURE NAME: composite z-score

COMPOUND: COc1ccc([Si](C)(C)[C@@H]2[C@@H](CCO)O[C@]3(C(=O)N(Cc4ccccc4)c4ccccc43)[C@H]2C)cc1
REPORTED MEASUREMENT: 0.274
--
COMPOUND: O=C1C[C@@](C(=O)NC2CC2)(c2ccc([N+](=O)[O-])cc2)[C@@H](c2ccc(CO)cc2I)N1CC12CC3CC(CC(C3)C1)C2
REPORTED MEASUREMENT: -0.407
--
COMPOUND: [N-]=[N+]=Nc1ccccc1C[C@@]1(C(=O)N2CCOCC2)N=C(c2ccc(OCCCO)cc2)O[C@@H]1c1ccccc1N=[N+]=[N-]
REPORTED MEASUREMENT: 0.782
--
COMPOUND: CCC(=O)[C@]12O[C@@]3([C@@H]4C(=O)OCC[C@@H]41)N(Cc1ccccc1)C(C)=C(C(=O)OC)[C@@H](c1ccccc1)N3C2=O
REPORTED MEASUREMENT: -0.289
--
COMPOUND: C[C@@H]1CC[C@H]2C(=O)N3[C@@H](CC[C@@H](C)[C@@H]3c3cccc(N4CCOCC4)c3)C(=O)N2[C@H]1c1cccc(Br)c1
REPORTED MEASUREMENT: 0.237
--
COMPOUND: CO[C@@H]1COC(=O)CC=C[C@H](C)COC(=O)[C@H](Cc2ccccc2)NC(=O)CC=C[C@H]1C
REPORTED MEASUREMENT: 1.69
--
COMPOUND: C=CC[C@]1(C(N)=O)N=C(c2ccc(OCCCO)cc2)O[C@H]1c1ccccc1CN=[N+]=[N-]
REPORTED MEASUREMENT: 1.36
--
COMPOUND: O=C(O)[C@@H]1Cc2c([nH]c3ccccc23)[C@@H](c2ccccc2)N1
REPORTED MEASUREMENT: -0.15
--
COMPOUND: Cc1ccc(N2C(=O)c3ccccc3[C@@H](C(=O)NCC(F)(F)F)[C@@H]2c2ccc(CO)cc2)nc1
REPORTED MEASUREMENT: -1.33
--
COMPOUND: CCOC(=O)C1=CCC(c2cccc3ccccc23)N(S(=O)(=O)c2ccc(C)cc2)C1 (centres undefined)
REPORTED MEASUREMENT: -0.0897
--
COMPOUND: COc1cccc([C@@H]2[C@@H](C)CC[C@H]3C(=O)N4[C@H](c5cccc(OC)c5)[C@@H](C)CC[C@H]4C(=O)N23)c1
REPORTED MEASUREMENT: 0.683
--
COMPOUND: O=C1C2C=CC(C(O)c3ccccc3)N(n3cnnc3)C2C(=O)N1Cc1ccccc1 (centres undefined)
REPORTED MEASUREMENT: -0.399
--
COMPOUND: Cc1cc(C)c(C(O)C2C=CC3C(=O)N(C)C(=O)C3N2N2CCCCC2)c(C)c1 (centres undefined)
REPORTED MEASUREMENT: 0.563
--
COMPOUND: COc1cc(CO)cc(I)c1O[C@H]1C=C(C(=O)NCCO)C[C@@H](N(CC2CCCCC2)C(=O)c2cc3ccccc3oc2=O)[C@@H]1O
REPORTED MEASUREMENT: -0.0516
--
COMPOUND: C=C[C@H](OC)[C@@H](OC(=O)Nc1ccc(SC)cc1)c1ccc(OC)c(O)c1
REPORTED MEASUREMENT: -0.368
--
COMPOUND: COc1cc2c(cc1OC)CN(C(=O)[C@@H]1[C@H]3C(=O)O[C@H](c4ccccc4)[C@H](c4ccccc4)N3[C@H](c3ccccc3OCCO)[C@@]13C(=O)Nc1ccccc13)CC2
REPORTED MEASUREMENT: 1.04
--
COMPOUND: CCOC(=O)C[C@H]1[C@H](OC(=O)c2ccccc2-c2ccccc2)[C@@H](NC(=O)c2ccc(-c3ccccc3)cc2)c2cc(OCCCO)ccc2N1C(=O)Cc1ccc(OC)cc1
REPORTED MEASUREMENT: -0.0021
--
COMPOUND: COc1ccc([Si](C)(C)[C@H]2[C@H](CC(=O)N3Cc4ccccc4C[C@H]3CO)O[C@@]3(C(=O)N(Cc4cccc(N5CCOC5=O)c4)c4ccccc43)[C@@H]2C)cc1
REPORTED MEASUREMENT: 0.882
--
COMPOUND: O=C(N1CCCCC1)[C@@]1(CCS(=O)(=O)c2ccccc2)N=C(c2ccc(OCCCO)cc2)O[C@H]1c1ccccc1
REPORTED MEASUREMENT: 0.529
--
COMPOUND: [N-]=[N+]=NCc1ccccc1C[C@@]1(C(=O)O)N=C(c2ccc(OCCCO)cc2)O[C@@H]1c1ccccc1N=[N+]=[N-]
REPORTED MEASUREMENT: -0.259
--
COMPOUND: COC(=O)Cn1c(C(=O)N2CCCC2)cc2c1C[C@H]1CN(C(=O)c3ccccc3)[C@@](Cc3ccccc3)(C(=O)OC)[C@@H]21
REPORTED MEASUREMENT: -0.0841
--
COMPOUND: CO[C@H]1O[C@H](CO)[C@@H](OC(=O)Nc2ccccc2)[C@H](OC(=O)Nc2ccc3c(c2)OCO3)[C@@H]1OC(=O)Nc1ccc2c(c1)OCO2
REPORTED MEASUREMENT: 1.66
--
COMPOUND: Cc1ccc(N2C(=O)c3ccccc3[C@](C)(C(=O)NCC(C)C)[C@@H]2c2ccc(CO)cc2)nc1
REPORTED MEASUREMENT: -0.48
--
COMPOUND: C=CCC(OC(C)=O)[C@@H]1[C@@H](N(Cc2cc3ccccc3o2)C(=O)Cc2ccc(F)cc2)c2cc(OCCCO)ccc2N1C(=O)c1ccc(-c2ccccc2)cc1 (some centres undefined)
REPORTED MEASUREMENT: -0.103
--
COMPOUND: COC(=O)[C@@]1(Cc2ccccc2N=[N+]=[N-])N=C(c2ccc(OCCCO)cc2)O[C@H]1c1ccccc1CN=[N+]=[N-]
REPORTED MEASUREMENT: 0.378
--
COMPOUND: NC(=O)NCC#Cc1ccc2c(c1)[C@]1(C(=O)N2)[C@H](C(=O)N2CCCCCCC2)[C@H]2C(=O)O[C@H](c3ccccc3)[C@H](c3ccccc3)N2[C@@H]1c1ccccc1OCCO
REPORTED MEASUREMENT: 2.03
--
COMPOUND: COC(=O)[C@@]1(Cc2ccccc2CN=[N+]=[N-])N=C(c2ccc(OCCCO)cc2)O[C@H]1c1ccccc1N=[N+]=[N-]
REPORTED MEASUREMENT: -0.523
--
COMPOUND: C=C(CCCC)/C(=C/C[C@H](OC(=O)c1ccncc1)c1cccc(OCCO)c1)c1cc(C(=O)OC)ccc1OC
REPORTED MEASUREMENT: 0.422
--
COMPOUND: CC(=O)NCCCC[C@@H]1NC(=O)[C@@H]2C[C@H](C(=O)NCCCCCNC(=O)CS)[C@H](c3ccc(O)cc3)N2C1=O
REPORTED MEASUREMENT: -0.383
